These measurements were taken from patent US10392620B2.

- Test system: Zymoseptoria tritici (SEPTTR-184)
- experimentDescription: Efficacy of target gene fragments (MgCytB dsRNA tiles) on wheat plants, SEPTTR-184
- Format: in vivo
- studyConditions: 3DC (curative)
quantityName: ED80 SEPTTR-184 3DC (ppm)
Provide the reading as a plain figure in ppm.

ED80 SEPTTR-184 3DC for MgCytB-T5: 172 bp dsRNA of Zymoseptoria CytB region T5, location 173-344 (SEQ ID NO:8) (nucleic acid, listed as Zymoseptoria tritici, complementary strand of dsRNA) TATCTGAAGCATTTAACTCAGTTGAACACATAATGAGAGATGTAAACAATGGATGACTTATACGTTATCTTCACTCTAATACTGCTTCAGCTTTCTTCTTTTTAGTTTACCTGCACGTGGGTAGAGGGTTATACTACGGGTCATACAAAGCCCCTAGAACATTAACATGAAC is 200

ED80 SEPTTR-184 3DC for MgCytB-T4: 219 bp dsRNA of Zymoseptoria CytB region T4, location 1-219 (SEQ ID NO:7) (nucleic acid, listed as Zymoseptoria tritici, complementary strand of dsRNA) ATGAGGATTTGGAAGAGTCACCCTTTATTTAGTCTGGTTAATGGTTATCTTATCGATTCACCACAACCAAGTAATCTAAGCTATCTATGAAATTTCGGTTCATTACTGGGATTTTGTCTTGTAATACAAATCGTTACTGGTGTTACACTTGCTATGCATTATAACCCTAGCGTATCTGAAGCATTTAACTCAGTTGAACACATAATGAGAGATGTAAAC is 44
